Sourced from patent US20210179666A1

Listed here: items and their measured IC50.
- Tgt: T1, human melanocortin 4 receptor (human, UniProt P32245 1-332)
- T1 construct: whole, on cells; the assays used the receptor on HEK293 cells; also called hMC4R
- Assay comment: 125I-NDP-MSH competition, HEK293 cells
Square brackets hold non-standard residues; d marks the D form. Dap = NC[C@H](N)C(=O)O
Numbers only; they are read as µM.

// worked examples, IC50 included
Binder	IC50, µM
cyclo(PRFF[Dap]VF[dP]) (Ala115Val SNP in the Dap scaffold; also called c[Pro-Arg-Phe-Phe-Dap-Val-Phe-DPro]) [ZMK 2-85]	0.0322
cyclo(PHFFNAF[dP]) (Arg111His SNP in the Asn scaffold; also called c[Pro-His-Phe-Phe-Asn-Ala-Phe-DPro]) [ZMK 2-96]	22
cyclo(PRYFNAF[dP]) (Phe112Tyr SNP in the Asn scaffold; also called c[Pro-Arg-Tyr-Phe-Asn-Ala-Phe-DPro]) [ZMK 2-110]	14.3

With those in mind, consider the next binder.
Please give the measured IC50 for this binder: cyclo(PCFF[Dap]AF[dP]) (Arg111Cys SNP in the Dap scaffold; also called c[Pro-Cys-Phe-Phe-Dap-Ala-Phe-DPro]) [ZMK 3-20]
15.7
